tested on: P12-Ichikawa; assay: cell viability relative to DMSO control; higher = less cytotoxic; conditions: HPLM + 10% dialyzed FBS; 48 h; 15.4 µM

>  <molecule>
CC[C@@H]1C(=O)N(C)c2cnc(Nc3ccc(C(=O)NC4CCN(C)CC4)cc3OC)nc2N1C1CCCC1

>  <cell viability>
11.4%

$$$$
>  <molecule>
CC(C)[N+]1(C)C2CCC1CC(OC(=O)C(CO)c1ccccc1)C2.O.[Br-] (stereo unspecified)

>  <cell viability>
14.1%

$$$$
>  <molecule>
CCOCC(O)COc1ccc(NC(=O)CC[S+](C)C)cc1 (stereo unspecified)

>  <cell viability>
99%

$$$$
>  <molecule>
CN(C(Cc1ccc(O[S+](=O)([O-])c2cccc3cnccc23)cc1)C(=O)N1CCN(c2ccccc2)CC1)[S+](=O)([O-])c1cccc2cnccc12 (stereo unspecified)

>  <cell viability>
89.2%

$$$$
>  <molecule>
O=C1N\C=N/C2=C1C=N[NH]2

>  <cell viability>
77.8%

$$$$
>  <molecule>
COc1cc(OC)c(C(=O)CCCN2CCCC2)c(OC)c1

>  <cell viability>
117%

$$$$
>  <molecule>
Oc1ccc([C@@H]2Oc3ccc(O)cc3[C@@H]3CCC[C@@H]32)cc1

>  <cell viability>
40.6%

$$$$
>  <molecule>
NC[C@H]1O[C@H](O[C@H]2[C@H](O)[C@@H](O[C@H]3O[C@H](CO)[C@@H](O)[C@H](N)[C@H]3O)[C@H](N)C[C@@H]2N)[C@H](N)C[C@@H]1O

>  <cell viability>
101%

$$$$
>  <molecule>
C[C@H](NCc1ccc(OCc2cccc(F)c2)cc1)C(N)=O

>  <cell viability>
98%

$$$$
>  <molecule>
CC(C)(O)C(=O)Nc1ccc([N+](=O)[O-])c(C(F)(F)F)c1

>  <cell viability>
24%

$$$$
>  <molecule>
Nc1nc(NCCNc2ncc(-n3ccnc3)c(-c3ccc(Cl)cc3Cl)n2)ccc1[N+](=O)[O-]

>  <cell viability>
130%

$$$$
>  <molecule>
Oc1ccc2ccccc2c1SSc1c(O)ccc2ccccc12

>  <cell viability>
105%

$$$$
>  <molecule>
N#Cc1ccnc(N2C(=O)CC[C@H]2C(=O)N(c2cncc(F)c2)[C@H](C(=O)NC2CC(F)(F)C2)c2ccccc2Cl)c1

>  <cell viability>
10.1%

$$$$
>  <molecule>
Nc1nc(N)c(N=O)c(OCC2CCCCC2)n1

>  <cell viability>
60.6%

$$$$
>  <molecule>
O=C(NCC1CCOCC1)c1cnc(Nc2ccc(Cl)cc2Cl)nc1C(F)(F)F

>  <cell viability>
121%

$$$$
>  <molecule>
Cc1ccc(-c2cc(C(F)(F)F)nn2-c2ccc([S+](N)(=O)[O-])cc2)cc1

>  <cell viability>
112%

$$$$
>  <molecule>
N#Cc1ccc(NC(=O)Nc2ccccc2Br)c2nn[nH]c12

>  <cell viability>
126%

$$$$
>  <molecule>
C1CN\2C[C@@H](\N=C2S1)C3=CC=CC=C3

>  <cell viability>
108%

$$$$
>  <molecule>
C[N]1N=CC=C1C/2=C(\C)N(C(=O)C(=C2)/C(=O)NCC3=NC=C(C=C3)[S+](C)([O-])=O)C4=CC=CC(=C4)C(F)(F)F

>  <cell viability>
96.8%

$$$$
>  <molecule>
O=C1CCCC(=O)C1C(=O)c1ccc(C(F)(F)F)cc1[N+](=O)[O-]

>  <cell viability>
98.3%

$$$$
>  <molecule>
CCC(C1CCC(C)C(O1)C(C)C(O)C(C)C(=O)C(CC)C2OC\3(O[C@]4(CC[C@@](C)(O4)C5CC[C@@](O)(CC)C(C)O5)C(O)\C=C3)C(C)CC2C)C([O-])=O (stereo partly specified)

>  <cell viability>
74.8%

$$$$
>  <molecule>
CC(C)Cn1cnc2c(N)nc3ccccc3c21

>  <cell viability>
75.1%

$$$$
>  <molecule>
Cc1ccc(/C=N/NC(=O)c2ccccc2Oc2ccccc2)o1

>  <cell viability>
89.7%

$$$$
>  <molecule>
CN(C)[C@@H](CCOc1cccc2ccccc12)c1ccccc1

>  <cell viability>
104%

$$$$
>  <molecule>
COc1ccc([S+](=O)([O-])Nc2cccnc2Nc2ccc(O)cc2)cc1

>  <cell viability>
14.8%

$$$$
>  <molecule>
Nc1ccc([S+](=O)([O-])Nc2ncccn2)cc1

>  <cell viability>
119%

$$$$

====

tested on: P12-Ichikawa; assay: cell viability relative to DMSO control; higher = less cytotoxic; conditions: RPMI 5 mM glucose + 10% FBS; 48 h; 0.00234 µM
So basically, if cell viability comes in under 90% it's criterion met, and if it's 90% or more it's criterion not met.

>  <compound>
COc1cc2ncnc(Nc3cccc(Cl)c3)c2cc1OC

>  <classification>
criterion not met

$$$$
>  <compound>
CCN(CC)CCCC(C)Nc1nc(C)cc(Nc2ccc3nc(C)cc(N)c3c2)n1 (stereo not given)

>  <classification>
criterion not met

$$$$
>  <compound>
C[N]1N=CC=C1C/2=C(\C)N(C(=O)C(=C2)/C(=O)NCC3=NC=C(C=C3)[S+](C)([O-])=O)C4=CC=CC(=C4)C(F)(F)F

>  <classification>
criterion not met

$$$$
>  <compound>
C[C@H](NCc1ccc(OCc2cccc(F)c2)cc1)C(N)=O

>  <classification>
criterion not met

$$$$
>  <compound>
Oc1ccc([C@@H]2Oc3ccc(O)cc3[C@@H]3CCC[C@@H]32)cc1

>  <classification>
criterion met

$$$$
>  <compound>
CC(C)(Sc1ccc(CCN(CCCCC2CCCCC2)C(=O)NC2CCCCC2)cc1)C(=O)O

>  <classification>
criterion not met

$$$$
>  <compound>
Cc1c(C(=O)c2cccc3ccccc23)c2cccc3c2n1[C@H](CN1CCOCC1)CO3

>  <classification>
criterion met

$$$$
>  <compound>
C1CN\2C[C@@H](\N=C2S1)C3=CC=CC=C3

>  <classification>
criterion not met

$$$$

====

The entries below are paired with their reported AUC of viability dose-response curve.
system: P12-Ichikawa; assay: AUC of viability dose-response curve (% viability x log10 dose units); higher = less sensitive; conditions: RPMI 5 mM glucose + 10% FBS; 48 h
experimental_readout: AUC of viability dose-response curve

>  <molecule>
COc1c(O)cc2c(c1O)[C@@H]1O[C@H](CO)[C@@H](O)[C@H](O)[C@H]1OC2=O

>  <experimental_value>
432

$$$$
>  <molecule>
CCC(C1CCC(C)C(O1)C(C)C(O)C(C)C(=O)C(CC)C2OC\3(O[C@]4(CC[C@@](C)(O4)C5CC[C@@](O)(CC)C(C)O5)C(O)\C=C3)C(C)CC2C)C([O-])=O (some centres not stated)

>  <experimental_value>
403

$$$$
>  <molecule>
COc1cc2c(Nc3ccc(Cl)c(Cl)c3F)ncnc2cc1OC[C@@H]1C[C@@H]2CN(C)C[C@@H]2C1

>  <experimental_value>
453

$$$$
>  <molecule>
Nc1ccn([C@H]2CS[C@@H](CO)O2)c(=O)n1

>  <experimental_value>
471

$$$$
>  <molecule>
COc1ccc([S+](=O)([O-])Nc2cccnc2Nc2ccc(O)cc2)cc1

>  <experimental_value>
377

$$$$
>  <molecule>
CCOC(=O)[C@@H](N)CCC(=O)N[C@@H](CSCc1ccccc1)C(=O)N[C@@H](C(=O)OCC)c1ccccc1

>  <experimental_value>
458

$$$$
>  <molecule>
Cc1nc(N)ncc1-c1nc(N2CCOCC2)c2sc(C(C)(C)O)cc2n1

>  <experimental_value>
279

$$$$
>  <molecule>
Cc1cccc2c1CC[C@H](CN1CCC(c3c(Cl)cccc3Cl)CC1)C[C@@H]2O

>  <experimental_value>
425

$$$$
>  <molecule>
CC(C)n1cnc2c(NCCc3ccc(O)cc3)nc(-c3csc4ccccc34)nc21

>  <experimental_value>
428

$$$$
>  <molecule>
CCc1cc(-c2n[nH]c(C)c2-c2ccc3c(c2)OCCO3)c(O)cc1O

>  <experimental_value>
435

$$$$
>  <molecule>
CC(C)(O)C(=O)Nc1ccc([N+](=O)[O-])c(C(F)(F)F)c1

>  <experimental_value>
409

$$$$
>  <molecule>
Cn1ccc2cc3c(cc21)CCN3C(=O)Nc1cccnc1

>  <experimental_value>
462

$$$$
>  <molecule>
Cn1cnc([N+](=O)[O-])c1Sc1ncnc2nc[nH]c12

>  <experimental_value>
365

$$$$
>  <molecule>
O=C(NCC1CCOCC1)c1cnc(Nc2ccc(Cl)cc2Cl)nc1C(F)(F)F

>  <experimental_value>
472

$$$$
>  <molecule>
O=C1CCCC(=O)C1C(=O)c1ccc(C(F)(F)F)cc1[N+](=O)[O-]

>  <experimental_value>
450

$$$$
>  <molecule>
COC(=O)N[C@H](C(=O)N1CCC[C@H]1c1ncc(-c2ccc(-c3ccc(-c4cnc([C@@H]5CCCN5C(=O)[C@@H](NC(=O)OC)C(C)C)[nH]4)cc3)cc2)[nH]1)C(C)C

>  <experimental_value>
474

$$$$
>  <molecule>
O[C@@H]1[C@@H](O)[C@H](O[C@@H]([C@H]1O)C(O)=O)OC2=C(O)C(=C3C(=O)\C=C(/OC3=C2)C4=CC=CC=C4)O

>  <experimental_value>
448

$$$$
